Biological target: Toll-like receptor 1/2 (Mus musculus)
Experiment: Agonist activity at TLR2/TLR1 in mouse Macrophage cell line
property-label: EC50

Guide cases for EC50, answers given:
smiles-entry	assay-value
CCCCCCCCCCNC(=O)[C@@H]1CN(C(=O)c2ccc(C(=O)N3C[C@@H](C(=O)NCCCCCCCCCC)[C@H](C(=O)NCCCCCCCCCC)C3)cc2)C[C@H]1C(=O)NCCCCCCCCCC	> 0.005 µM
O=C(NCCc1ccc(F)cc1)[C@@H]1CN(C(=O)C/C=C/CC(=O)N2C[C@@H](C(=O)NCCc3ccc(F)cc3)[C@H](C(=O)NCCc3ccc(F)cc3)C2)C[C@H]1C(=O)NCCc1ccc(F)cc1	> 5 µM
Cc1cc(C(=O)N2C[C@@H](C(=O)N[C@H]3C[C@@H]3c3ccccc3)[C@H](C(=O)N[C@H]3C[C@@H]3c3ccccc3)C2)c(C)cc1C(=O)N1C[C@@H](C(=O)N[C@H]2C[C@@H]2c2ccccc2)[C@H](C(=O)N[C@H]2C[C@@H]2c2ccccc2)C1	> 5 µM
CCCNC(=O)[C@@H]1CN(C(=O)c2ccc(C(=O)N3C[C@@H](C(=O)N[C@H]4C[C@@H]4c4ccccc4)[C@H](C(=O)N[C@@H]4C[C@H]4c4ccccc4)C3)cc2)C[C@H]1C(=O)N[C@H]1C[C@@H]1c1ccccc1	0.36 µM
O=C(N[C@H]1C[C@@H]1c1ccccc1)[C@@H]1CN(C(=O)Cc2cccc(CC(=O)N3C[C@@H](C(=O)N[C@H]4C[C@@H]4c4ccccc4)[C@H](C(=O)N[C@H]4C[C@@H]4c4ccccc4)C3)c2)C[C@H]1C(=O)N[C@H]1C[C@@H]1c1ccccc1	> 5 µM

Required: EC50, one value per compound below.
1. O=C(N[C@H]1C[C@@H]1c1ccccc1)[C@@H]1CN(C(=O)c2cc(Br)c(C(=O)N3C[C@@H](C(=O)N[C@H]4C[C@@H]4c4ccccc4)[C@H](C(=O)N[C@H]4C[C@@H]4c4ccccc4)C3)cc2Br)C[C@H]1C(=O)N[C@H]1C[C@@H]1c1ccccc1
2. O=C(N[C@H]1C[C@@H]1c1ccccc1)[C@@H]1CN(C(=O)c2ccc(C(=O)N3C[C@@H](C(=O)N[C@H]4C[C@@H]4c4ccccc4)[C@H](C(=O)N[C@H]4C[C@@H]4c4ccccc4)C3)c(O)c2)C[C@H]1C(=O)N[C@H]1C[C@@H]1c1ccccc1
3. O=C(N[C@H]1C[C@@H]1c1ccccc1)[C@@H]1CN(C(=O)c2cccc3c(C(=O)N4C[C@@H](C(=O)N[C@H]5C[C@@H]5c5ccccc5)[C@H](C(=O)N[C@H]5C[C@@H]5c5ccccc5)C4)cccc23)C[C@H]1C(=O)N[C@H]1C[C@@H]1c1ccccc1
4. Nc1cc(C(=O)N2C[C@@H](C(=O)N[C@H]3C[C@@H]3c3ccccc3)[C@H](C(=O)N[C@H]3C[C@@H]3c3ccccc3)C2)ccc1C(=O)N1C[C@@H](C(=O)N[C@H]2C[C@@H]2c2ccccc2)[C@H](C(=O)N[C@H]2C[C@@H]2c2ccccc2)C1

Response given:
["> 5 µM", "> 5 µM", "> 5 µM", "0.14 µM"]

Required: EC50, one value per compound below.
1. O=C(N[C@H]1C[C@@H]1c1ccccc1)[C@@H]1CN(C(=O)C#CC(=O)N2C[C@@H](C(=O)N[C@H]3C[C@@H]3c3ccccc3)[C@H](C(=O)N[C@H]3C[C@@H]3c3ccccc3)C2)C[C@H]1C(=O)N[C@H]1C[C@@H]1c1ccccc1
2. CCCCNC(=O)[C@@H]1CN(C(=O)c2ccc(C(=O)N3C[C@@H](C(=O)N[C@H]4C[C@@H]4c4ccccc4)[C@H](C(=O)N[C@@H]4C[C@H]4c4ccccc4)C3)cc2)C[C@H]1C(=O)N[C@H]1C[C@@H]1c1ccccc1

Response given:
> 5 µM
0.03 µM

Required: EC50, one value per compound below.
1. O=C(N[C@H]1C[C@@H]1c1ccccc1)[C@@H]1CN(C(=O)[C@H]2CC[C@H](C(=O)N3C[C@@H](C(=O)N[C@H]4C[C@@H]4c4ccccc4)[C@H](C(=O)N[C@H]4C[C@@H]4c4ccccc4)C3)CC2)C[C@H]1C(=O)N[C@H]1C[C@@H]1c1ccccc1
2. O=C(NCCc1ccc(F)cc1)[C@@H]1CN(C(=O)c2ccc(C(=O)N3C[C@@H](C(=O)NCCc4ccc(F)cc4)[C@H](C(=O)NCCc4ccc(F)cc4)C3)c(O)c2)C[C@H]1C(=O)NCCc1ccc(F)cc1
3. O=C(N[C@H]1C[C@@H]1c1ccccc1)[C@@H]1CN(C(=O)c2cc(O)c(C(=O)N3C[C@@H](C(=O)N[C@H]4C[C@@H]4c4ccccc4)[C@H](C(=O)N[C@H]4C[C@@H]4c4ccccc4)C3)cc2O)C[C@H]1C(=O)N[C@H]1C[C@@H]1c1ccccc1
4. CCCCCCCCNC(=O)[C@@H]1CN(C(=O)c2ccc(C(=O)N3C[C@@H](C(=O)N[C@H]4C[C@@H]4c4ccccc4)[C@H](C(=O)N[C@@H]4C[C@H]4c4ccccc4)C3)cc2)C[C@H]1C(=O)NCCCCCCCC

Response given:
> 5 µM
> 5 µM
> 5 µM
1 µM

Required: EC50, one value per compound below.
1. CCCCCCCCCCCCNC(=O)[C@@H]1CN(C(=O)c2ccc(C(=O)N3C[C@@H](C(=O)N[C@H]4C[C@@H]4c4ccccc4)[C@H](C(=O)N[C@@H]4C[C@H]4c4ccccc4)C3)cc2)C[C@H]1C(=O)NCCCCCCCCCCCC
2. CCCCCCNC(=O)[C@@H]1CN(C(=O)c2ccc(C(=O)N3C[C@@H](C(=O)NCCCCCC)[C@H](C(=O)NCCCCCC)C3)cc2)C[C@H]1C(=O)NCCCCCC

Response given:
1. 0.62 µM
2. > 0.005 µM

---

Molecular target: Toll-like receptor 1/2 (Homo sapiens, UniProt O60603+Q15399)
Sequence (O60603 whole entry): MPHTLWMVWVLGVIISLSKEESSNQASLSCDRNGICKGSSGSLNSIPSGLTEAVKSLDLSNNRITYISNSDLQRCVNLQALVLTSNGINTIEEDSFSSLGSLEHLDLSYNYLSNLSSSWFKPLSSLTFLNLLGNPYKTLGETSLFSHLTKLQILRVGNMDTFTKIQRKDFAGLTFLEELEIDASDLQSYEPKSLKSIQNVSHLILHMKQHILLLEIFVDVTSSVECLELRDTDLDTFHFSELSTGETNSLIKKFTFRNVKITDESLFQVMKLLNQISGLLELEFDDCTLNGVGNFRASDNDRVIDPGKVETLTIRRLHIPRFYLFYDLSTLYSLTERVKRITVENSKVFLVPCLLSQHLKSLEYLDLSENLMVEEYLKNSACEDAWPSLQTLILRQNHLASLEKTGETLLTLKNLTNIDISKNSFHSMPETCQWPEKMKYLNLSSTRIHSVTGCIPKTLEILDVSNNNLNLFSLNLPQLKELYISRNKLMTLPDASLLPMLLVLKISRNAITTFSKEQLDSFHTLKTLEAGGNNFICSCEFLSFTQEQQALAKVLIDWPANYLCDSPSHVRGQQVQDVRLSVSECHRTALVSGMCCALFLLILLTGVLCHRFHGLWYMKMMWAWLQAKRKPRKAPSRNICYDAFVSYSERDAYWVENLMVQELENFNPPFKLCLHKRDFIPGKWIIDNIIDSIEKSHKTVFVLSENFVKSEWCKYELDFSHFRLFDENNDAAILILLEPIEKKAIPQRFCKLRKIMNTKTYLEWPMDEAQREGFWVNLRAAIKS
Sequence (Q15399 whole entry): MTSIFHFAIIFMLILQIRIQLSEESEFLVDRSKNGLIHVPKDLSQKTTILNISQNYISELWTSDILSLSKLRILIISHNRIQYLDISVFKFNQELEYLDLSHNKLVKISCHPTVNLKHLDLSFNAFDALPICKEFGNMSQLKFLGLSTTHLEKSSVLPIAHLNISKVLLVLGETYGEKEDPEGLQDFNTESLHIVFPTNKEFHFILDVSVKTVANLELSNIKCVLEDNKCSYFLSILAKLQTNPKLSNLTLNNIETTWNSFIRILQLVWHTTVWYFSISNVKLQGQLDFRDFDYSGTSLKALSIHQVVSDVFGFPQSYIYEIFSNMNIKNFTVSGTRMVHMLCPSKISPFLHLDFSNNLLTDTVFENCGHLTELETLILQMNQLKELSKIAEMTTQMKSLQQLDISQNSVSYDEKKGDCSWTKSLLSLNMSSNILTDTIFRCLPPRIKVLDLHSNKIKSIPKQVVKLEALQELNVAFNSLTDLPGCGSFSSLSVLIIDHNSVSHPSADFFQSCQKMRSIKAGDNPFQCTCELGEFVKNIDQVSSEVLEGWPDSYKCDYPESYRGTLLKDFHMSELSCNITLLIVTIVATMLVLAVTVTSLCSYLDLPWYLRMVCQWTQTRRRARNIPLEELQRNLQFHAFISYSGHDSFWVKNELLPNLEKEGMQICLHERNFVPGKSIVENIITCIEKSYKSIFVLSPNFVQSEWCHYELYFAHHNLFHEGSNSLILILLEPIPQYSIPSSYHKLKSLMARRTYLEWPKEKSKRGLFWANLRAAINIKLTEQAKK
Assay: Agonist activity at TLR2/TLR1 in human THP-1 cells
Assay type: cell-based
Give EC50 for every item shown.
Give bare numbers, in nM.

Guide cases for EC50, answers given:
smiles-entry	assay-value
O=C(N[C@H]1C[C@@H]1c1ccc(Br)cc1)[C@@H]1CN(C(=O)c2ccc(C(=O)N3C[C@@H](C(=O)N[C@H]4C[C@@H]4c4ccc(Br)cc4)[C@H](C(=O)N[C@@H]4C[C@H]4c4ccc(Br)cc4)C3)cc2)C[C@H]1C(=O)N[C@H]1C[C@@H]1c1ccc(Br)cc1	1600
O=C(N[C@H]1C[C@@H]1c1ccc(F)cc1)[C@@H]1CN(C(=O)c2ccc(C(=O)N3C[C@@H](C(=O)N[C@H]4C[C@@H]4c4ccc(F)cc4)[C@H](C(=O)N[C@@H]4C[C@H]4c4ccc(F)cc4)C3)cc2)C[C@H]1C(=O)N[C@H]1C[C@@H]1c1ccc(F)cc1	0.13
CCCCCCCCCCCCCCCCNC(=O)[C@@H]1CN(C(=O)c2ccc(C(=O)N3C[C@@H](C(=O)N[C@H]4C[C@@H]4c4ccccc4)[C@H](C(=O)N[C@@H]4C[C@H]4c4ccccc4)C3)cc2)C[C@H]1C(=O)NCCCCCCCCCCCCCCCC	2.5
CCCCCCCCCCCCCCCCNC(=O)[C@@H]1CN(C(=O)c2ccc(C(=O)N3C[C@@H](C(=O)N[C@H]4C[C@@H]4c4ccccc4)[C@H](C(=O)N[C@@H]4C[C@H]4c4ccccc4)C3)cc2)C[C@H]1C(=O)N[C@H]1C[C@@H]1c1ccccc1	0.5

Now for the molecule whose EC50 we want.
Challenge: Could you tell me which EC50 is on file for Nc1cc(C(=O)N2C[C@@H](C(=O)N[C@H]3C[C@@H]3c3ccccc3)[C@H](C(=O)N[C@H]3C[C@@H]3c3ccccc3)C2)ccc1C(=O)N1C[C@@H](C(=O)N[C@H]2C[C@@H]2c2ccccc2)[C@H](C(=O)N[C@H]2C[C@@H]2c2ccccc2)C1 ?
Response given: 1

---

Give EC50 for every item shown.
Molecular target: Toll-like receptor 1/2 (Homo sapiens, UniProt O60603+Q15399)
Assay: Agonist activity at TLR2/TLR1 in human THP-1 cells
Assay type: cell-based

Required: EC50, one value per molecule below.
1. O=C(NCCc1ccc(Br)cc1)[C@@H]1CN(C(=O)c2ccc(C(=O)N3C[C@@H](C(=O)NCCc4ccc(Br)cc4)[C@H](C(=O)NCCc4ccc(Br)cc4)C3)cc2)C[C@H]1C(=O)NCCc1ccc(Br)cc1 (racemic)
2. O=C(O)[C@@H]1CN(C(=O)c2ccc(C(=O)N3C[C@@H](C(=O)O)[C@H](C(=O)N[C@@H]4C[C@H]4c4ccccc4)C3)cc2)C[C@H]1C(=O)N[C@@H]1C[C@H]1c1ccccc1
3. O=C(NCCc1ccc(C(F)(F)F)cc1)[C@@H]1CN(C(=O)c2ccc(C(=O)N3C[C@@H](C(=O)NCCc4ccc(C(F)(F)F)cc4)[C@H](C(=O)NCCc4ccc(C(F)(F)F)cc4)C3)cc2)C[C@H]1C(=O)NCCc1ccc(C(F)(F)F)cc1 (racemic)
4. C#CCNc1cc(C(=O)N2C[C@@H](C(=O)N[C@H]3C[C@@H]3c3ccccc3)[C@H](C(=O)N[C@H]3C[C@@H]3c3ccccc3)C2)ccc1C(=O)N1C[C@@H](C(=O)N[C@H]2C[C@@H]2c2ccccc2)[C@H](C(=O)N[C@H]2C[C@@H]2c2ccccc2)C1

Response given:
["> 5 µM", "> 5 µM", "> 5 µM", "0.015 µM"]
